systemName: A2B receptor (Homo sapiens, UniProt P29275)
Sequence (P29275 whole entry): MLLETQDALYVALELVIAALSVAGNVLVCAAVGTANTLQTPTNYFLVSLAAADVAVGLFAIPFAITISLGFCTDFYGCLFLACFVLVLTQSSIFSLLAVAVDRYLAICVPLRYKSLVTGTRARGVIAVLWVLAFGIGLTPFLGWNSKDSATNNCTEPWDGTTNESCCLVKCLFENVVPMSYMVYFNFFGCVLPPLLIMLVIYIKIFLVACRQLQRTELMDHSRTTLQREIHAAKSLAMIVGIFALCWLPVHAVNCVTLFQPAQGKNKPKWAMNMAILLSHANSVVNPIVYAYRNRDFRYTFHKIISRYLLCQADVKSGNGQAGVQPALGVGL
procedureDetails: A2bR antagonism IC50, cAMP TR-FRET (Lance Ultra) in HEK-293 cells, NECA as agonist
Assay type: cell-based
Design: host or cells: HEK-293
testParameters: HEK-293 cells expressing A2B receptor; agonist NECA 30 nM (EC90); inhibition of cAMP
endpointName: IC50 (nM)
Give bare numbers, in nM.

## Input Return reported IC50; argument: "CCc1c(C)nn2c(N)c(C#N)c(NCCc3cccc(C)n3)nc12"
## Output 0.87

## Input Ok, now "CCc1c(C)nn2c(N)c(C#N)c(NCCc3nc(C4(CO)CC4)cs3)nc12"
## Output 21

## Input Please answer likewise for "CCc1c(C)nn2c(N)c(C#N)c(NCCc3cccc(C4(CO)CC4)n3)nc12"
## Output 3.6

## Input Here is the next compound: "CCc1c(C)nn2c(N)c(C#N)c(NCCc3cccc(C(C)(C)O)n3)nc12"
## Output 14

## Input Same for "Cc1nn2c(N)c(C#N)c(NCCc3cccc(CO)n3)nc2c1C"
## Output 2.3

Hi! Can you tell me IC50 for each of these compounds?
1. CCc1c(C)nn2c(N)c(C#N)c(N[C@@H](C)c3cccc(C)n3)nc12
2. CCc1c(C)nn2c(N)c(C#N)c(NCCc3ccc(F)cn3)nc12
3. CCc1c(C)nn2c(N)c(C#N)c(NCCc3ccn(C4CCCC4CO)n3)nc12 (stereo not drawn)

## Output
1: 0.87; 2: 13; 3: 9

Parameter requested: IC50. Apply to each item below.
1. Cc1nn2c(N)c(C#N)c(NCc3ccn(C(C)(C)CO)n3)nc2c1C
2. CCc1c(C)nn2c(N)c(C#N)c(NCCc3ccn(C(C)(C)CO)n3)nc12
3. Cc1nn2c(N)c(C#N)c(NCCc3cccc(C4(CO)CC4)n3)nc2c1Cl

## Output
100
7.3
6

Report IC50 for every entry below.
1. Cc1ccc(CCNc2nc3c(C)c(C)nn3c(N)c2C#N)nc1
2. CCc1c(C)nn2c(N)c(C#N)c(NCCc3ccn(CC4CC(O)C4)n3)nc12 (stereo not drawn)

## Output
1: 41; 2: 3
